Source: patent US11453679B2

Target: human Cav1.2 (Homo sapiens)
Sequence (Q13936 whole entry): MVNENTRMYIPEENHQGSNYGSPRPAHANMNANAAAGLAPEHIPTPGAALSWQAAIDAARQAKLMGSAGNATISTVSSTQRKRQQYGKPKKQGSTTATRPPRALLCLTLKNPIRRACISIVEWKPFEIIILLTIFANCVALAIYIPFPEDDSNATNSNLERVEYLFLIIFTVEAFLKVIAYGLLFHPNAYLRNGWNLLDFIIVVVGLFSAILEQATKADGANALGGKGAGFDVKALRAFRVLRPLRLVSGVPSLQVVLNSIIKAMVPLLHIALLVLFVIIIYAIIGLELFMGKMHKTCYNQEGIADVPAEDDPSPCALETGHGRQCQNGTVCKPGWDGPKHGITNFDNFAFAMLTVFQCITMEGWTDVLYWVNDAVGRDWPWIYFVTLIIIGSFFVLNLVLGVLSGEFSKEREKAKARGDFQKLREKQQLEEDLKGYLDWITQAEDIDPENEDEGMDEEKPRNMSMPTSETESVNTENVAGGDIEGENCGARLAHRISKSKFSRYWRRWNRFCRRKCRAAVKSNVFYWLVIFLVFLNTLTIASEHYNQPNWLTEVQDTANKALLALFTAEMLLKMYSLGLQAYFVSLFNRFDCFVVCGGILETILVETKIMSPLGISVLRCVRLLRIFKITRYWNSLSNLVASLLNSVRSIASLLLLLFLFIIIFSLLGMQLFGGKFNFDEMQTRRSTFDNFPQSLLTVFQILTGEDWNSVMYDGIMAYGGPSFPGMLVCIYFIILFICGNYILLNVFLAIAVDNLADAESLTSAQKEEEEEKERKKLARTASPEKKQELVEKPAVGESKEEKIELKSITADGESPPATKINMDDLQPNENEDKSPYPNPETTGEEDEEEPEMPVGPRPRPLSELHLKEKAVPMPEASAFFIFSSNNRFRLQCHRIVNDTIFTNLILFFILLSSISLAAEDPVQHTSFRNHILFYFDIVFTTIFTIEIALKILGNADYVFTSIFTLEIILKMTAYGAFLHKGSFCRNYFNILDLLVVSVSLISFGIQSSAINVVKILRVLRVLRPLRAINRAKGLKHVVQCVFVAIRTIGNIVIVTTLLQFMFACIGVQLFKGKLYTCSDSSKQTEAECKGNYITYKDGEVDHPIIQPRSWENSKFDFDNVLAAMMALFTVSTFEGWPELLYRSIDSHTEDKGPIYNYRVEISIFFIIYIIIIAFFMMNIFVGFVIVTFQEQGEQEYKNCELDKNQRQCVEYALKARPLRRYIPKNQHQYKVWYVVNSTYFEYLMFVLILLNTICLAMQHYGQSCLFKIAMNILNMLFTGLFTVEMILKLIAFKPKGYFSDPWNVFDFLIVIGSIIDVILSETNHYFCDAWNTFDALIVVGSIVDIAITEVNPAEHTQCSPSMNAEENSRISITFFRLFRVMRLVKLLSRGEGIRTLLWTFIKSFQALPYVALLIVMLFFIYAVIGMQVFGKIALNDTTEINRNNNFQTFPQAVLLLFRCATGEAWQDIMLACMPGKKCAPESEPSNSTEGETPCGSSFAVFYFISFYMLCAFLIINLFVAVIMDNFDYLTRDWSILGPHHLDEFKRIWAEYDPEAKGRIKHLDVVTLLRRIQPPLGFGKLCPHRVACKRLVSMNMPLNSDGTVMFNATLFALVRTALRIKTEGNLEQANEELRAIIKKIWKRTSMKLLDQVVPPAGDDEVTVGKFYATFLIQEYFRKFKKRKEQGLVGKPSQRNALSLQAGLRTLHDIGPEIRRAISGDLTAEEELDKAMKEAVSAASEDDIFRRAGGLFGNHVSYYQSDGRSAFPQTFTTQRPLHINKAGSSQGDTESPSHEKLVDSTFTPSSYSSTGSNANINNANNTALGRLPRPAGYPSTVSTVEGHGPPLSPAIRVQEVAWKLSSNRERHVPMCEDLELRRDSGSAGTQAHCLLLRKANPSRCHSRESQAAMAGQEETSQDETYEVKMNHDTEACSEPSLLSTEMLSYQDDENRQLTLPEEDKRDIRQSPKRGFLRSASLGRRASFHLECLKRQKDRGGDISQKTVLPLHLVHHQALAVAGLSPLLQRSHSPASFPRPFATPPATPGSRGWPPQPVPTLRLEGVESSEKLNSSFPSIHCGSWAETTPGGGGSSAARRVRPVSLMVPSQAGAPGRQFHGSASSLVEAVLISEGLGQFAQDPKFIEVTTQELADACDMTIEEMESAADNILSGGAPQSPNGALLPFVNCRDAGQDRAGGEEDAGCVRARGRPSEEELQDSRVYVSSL
Sequence (Q9NY47 19-1001 partner limits assumed): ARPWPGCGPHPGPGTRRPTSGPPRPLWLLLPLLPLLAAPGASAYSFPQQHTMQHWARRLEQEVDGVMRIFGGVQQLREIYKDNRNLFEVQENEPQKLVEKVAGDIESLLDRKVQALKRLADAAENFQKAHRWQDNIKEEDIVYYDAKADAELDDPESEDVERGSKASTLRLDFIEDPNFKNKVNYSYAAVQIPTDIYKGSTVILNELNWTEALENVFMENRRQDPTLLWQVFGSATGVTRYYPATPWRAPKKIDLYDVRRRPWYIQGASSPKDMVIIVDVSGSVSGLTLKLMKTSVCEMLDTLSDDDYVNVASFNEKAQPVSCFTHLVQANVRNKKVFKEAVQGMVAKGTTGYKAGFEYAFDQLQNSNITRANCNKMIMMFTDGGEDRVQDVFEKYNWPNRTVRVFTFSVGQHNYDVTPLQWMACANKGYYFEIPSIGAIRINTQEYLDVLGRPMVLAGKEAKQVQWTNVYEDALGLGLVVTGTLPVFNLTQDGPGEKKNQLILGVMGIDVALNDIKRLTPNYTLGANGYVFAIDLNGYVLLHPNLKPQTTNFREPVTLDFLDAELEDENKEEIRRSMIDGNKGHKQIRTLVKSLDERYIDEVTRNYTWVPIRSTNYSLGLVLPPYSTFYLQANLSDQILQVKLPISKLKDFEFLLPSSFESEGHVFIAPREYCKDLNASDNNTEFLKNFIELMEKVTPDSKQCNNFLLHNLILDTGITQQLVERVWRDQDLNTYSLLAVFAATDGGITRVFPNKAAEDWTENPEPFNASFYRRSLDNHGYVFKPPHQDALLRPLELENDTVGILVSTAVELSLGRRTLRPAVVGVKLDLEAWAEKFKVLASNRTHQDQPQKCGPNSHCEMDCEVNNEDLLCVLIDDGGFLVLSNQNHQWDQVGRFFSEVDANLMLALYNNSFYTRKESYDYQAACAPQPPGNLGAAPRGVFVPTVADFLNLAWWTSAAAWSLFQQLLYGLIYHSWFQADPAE
Sequence (Q9NY47 1002-1150 partner limits assumed): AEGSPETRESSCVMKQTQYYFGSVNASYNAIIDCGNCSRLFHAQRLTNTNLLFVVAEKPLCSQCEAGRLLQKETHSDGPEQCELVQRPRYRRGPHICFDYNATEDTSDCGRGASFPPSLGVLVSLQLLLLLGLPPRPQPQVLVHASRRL
Sequence (Q08289 whole entry partner): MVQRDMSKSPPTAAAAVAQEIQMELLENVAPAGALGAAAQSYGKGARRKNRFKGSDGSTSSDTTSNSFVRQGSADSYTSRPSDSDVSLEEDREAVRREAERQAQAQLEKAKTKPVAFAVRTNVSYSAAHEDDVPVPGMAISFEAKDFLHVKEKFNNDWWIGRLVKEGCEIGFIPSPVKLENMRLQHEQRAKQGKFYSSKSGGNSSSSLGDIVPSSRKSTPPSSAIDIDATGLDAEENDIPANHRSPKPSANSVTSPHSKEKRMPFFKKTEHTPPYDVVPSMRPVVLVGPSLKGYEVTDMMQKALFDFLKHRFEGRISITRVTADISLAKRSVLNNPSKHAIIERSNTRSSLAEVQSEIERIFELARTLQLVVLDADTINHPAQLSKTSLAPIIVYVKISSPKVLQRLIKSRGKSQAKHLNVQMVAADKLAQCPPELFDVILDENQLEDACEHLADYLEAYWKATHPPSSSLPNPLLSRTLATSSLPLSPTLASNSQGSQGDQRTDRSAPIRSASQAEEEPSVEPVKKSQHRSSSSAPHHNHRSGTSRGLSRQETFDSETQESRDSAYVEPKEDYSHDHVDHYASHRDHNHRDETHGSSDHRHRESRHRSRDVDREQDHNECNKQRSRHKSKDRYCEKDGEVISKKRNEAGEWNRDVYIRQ
Assay: QPatch channel biophysics assay (current-voltage relationship, V1/2, tau of inactivation), Cav1.2-HEK293(AUX) cell line
Format: cell-based
Parameters: expressed in transfected cells; host or cells: Flp-In 293 T-Rex (HEK293), clone 2-19B, stably transfected with pCMV6-entry-CACNA1C and pcDNA5H/FRT-TO-CACNA2D2-FCS-P2A-CACNB2
Settings: shift of half-way channel activation voltage (V1/2)
Attribute Measured: Biophysics voltage shift

Solved cases (2 shown):
{"Compound": "COC(=O)C1=C(C)NC2=C(C(=O)OC2)[C@H]1c1cc(F)cc(F)c1[C@@H](C)F (single isomer, unassigned) [Example 7]", "Experimental Value": "−6.6 mV"}
{"Compound": "COC(=O)C1=C(C)NC2=C(C(=O)OC2)[C@H]1c1cc(F)cc(F)c1C(C)C (single isomer, unassigned) [Example 18]", "Experimental Value": "−6.5 mV"}

Read the next record carefully.
# input Give its Biophysics voltage shift value. Item: COC(=O)C1=C(C)NC2=C(C(=O)OC2)[C@H]1c1cccc(F)c1CC(F)(F)F (single isomer, unassigned) [Example 9]
# output −6.6 mV

----------
Experiment: Compound exposure in wild-type mice (cerebellum and blood, mass spectrometry)
Conditions: male, C57BL/6J, mouse, brain (cerebellum) and whole blood, ip
# Kp at 1 h >= 2 gives rule met, anything below gives rule not met

{"Compound": "C=C(c1c(F)cccc1[C@H]1C(C(=O)OC)=C(C)NC2=C1C(=O)OC2)C(F)(F)F [Example 16]", "Label": "rule not met"}
{"Compound": "COC(=O)C1=C(C)NC2=C(C(=O)OC2)[C@H]1c1cccc(F)c1C1CC1 (single isomer, unassigned) [Example 4]", "Label": "rule not met"}
{"Compound": "COC(=O)C1=C(C)NC2=C(C(=O)OC2)[C@H]1c1cccc(F)c1[C@H](C)F (single isomer, unassigned) [Example 10]", "Label": "rule not met"}
{"Compound": "COC(=O)C1=C(C)NC2=C(C(=O)OC2)[C@H]1c1cccc(F)c1C(C)C (single isomer, unassigned) [Example 15]", "Label": "rule not met"}

# input Could you verify whether the entry COC(=O)C1=C(C)NC2=C(C(=O)OC2)[C@H]1c1cccc(F)c1[C@H]1CC1(F)F (single isomer, unassigned) [Example 1] shows Kp at 1 h of no less than 2?
# output rule not met

----------
Each item that follows carries a reported pEC50.
Biological target: UniProtKB Q13936
Assay: Sophion QPatch whole-cell voltage clamp dose-response assay, Cav1.2-HEK293(AUX) cell line (barium currents)
Conditions: QPatch EC50, 6-point dose response, 20-ms pulses from −80 mV to 0 mV; n = 1 unless marked (* n = 2, # n = 3)
pEC50 is defined as minus the log10 of a concentration measured in mol/L.

{"Compound": "COC(=O)C1=C(C)NC2=C(C(=O)OC2)[C@H]1c1cc(F)cc(F)c1[C@H]1CC1(F)F (single isomer, unassigned) [Example 5]", "pEC50": 7.28}
{"Compound": "COC(=O)C1=C(C)NC2=C(C(=O)OC2)[C@H]1c1cc(F)cc(F)c1[C@H]1CC1(F)F (single isomer, unassigned) [Example 6]", "pEC50": 7.09}
{"Compound": "C=C(c1c(F)cccc1[C@H]1C(C(=O)OC)=C(C)NC2=C1C(=O)OC2)C(F)(F)F [Example 16]", "pEC50": 8.40}
{"Compound": "COC(=O)C1=C(C)NC2=C(C(=O)OC2)[C@H]1c1cccc(F)c1[C@@H](F)CF (single isomer, unassigned) [Example 11]", "pEC50": 7.40}

# input Give its pEC50 value. Item: COC(=O)C1=C(C)NC2=C(C(=O)OC2)[C@H]1c1cccc(F)c1C1CCC1 (single isomer, unassigned) [Example 3]
# output 7.10

# input What about COC(=O)C1=C(C)NC2=C(C(=O)OC2)[C@H]1c1cc(F)cc(F)c1[C@@H](C)F (single isomer, unassigned) [Example 7] ?
# output 7.52

# input What about COC(=O)C1=C(C)NC2=C(C(=O)OC2)[C@H]1c1cccc(F)c1C(C)C (single isomer, unassigned) [Example 15] ?
# output 7.30

# input What about COC(=O)C1=C(C)NC2=C(C(=O)OC2)[C@H]1c1cccc(F)c1CC(F)F [Example 17] ?
# output 6.57

# input What about COC(=O)C1=C(C)NC2=C(C(=O)OC2)[C@H]1c1cccc(F)c1C1CC(F)C1 (single isomer, unassigned) [Example 20] ?
# output 7.07
